Tested on: TTR
Assay: TTR editing in primary human hepatocytes transfected with Spy Cas9 mRNA and sgRNAs (Table 13)
Type: cell-based
Settings: primary human hepatocytes co-transfected with Spy Cas9 mRNA (SEQ ID NO:2) and sgRNAs, 12.5 nM
Experimental: Primary liver hepatocytes. Primary human liver hepatocytes (PHH) and primary cynomolgus liver hepatocytes (PCH) (Gibco) were cultured per the manufacturer's protocol (Invitrogen, protocol 11.28.2012). […] Cells were counted and plated on Bio-coat collagen I coated 96-well plates (ThermoFisher, Cat. 877272) at a density of 33,000 cells/well for human or 60,000 cells/well for cyno (or 65,000 cells/well when assaying effects on TTR protein, described further below). […]
Strand notation (5' to 3'): a small letter for the sugar, then the base; units joined by * are phosphorothioate-linked, units joined directly phosphodiester-linked; [ ] holds rarer units or linkages, { } end groups; capitals alone tell only the bases. m = 2'-O-methyl; r = 2'-OH (RNA)
MEASURED METRIC: Avg % Insert

As a guide, the following entries are already answered.
{"MOLECULE": "G000498: TTR sgRNA modified sequence, Human, SEQ ID No. 105; guide sequence of CR003359 (nucleic acid) guide: mA*mG*mU*rGrArGrUrCrUrGrGrArGrArGrCrUrGrCrArGrUrUrUrUrArGrAmGmCmUmAmGmAmAmAmUmAmGmCrArArGrUrUrArArArArUrArArGrGrCrUrArGrUrCrCrGrUrUrArUrCrAmAmCmUmUmGmAmAmAmAmAmGmUmGmGmCmAmCmCmGmAmGmUmCmGmGmUmGmCmU*mU*mU*mU", "Avg % Insert": "45.20%"}
{"MOLECULE": "G000488: TTR sgRNA modified sequence, Human, SEQ ID No. 95; guide sequence of CR003346 (nucleic acid) guide: mA*mA*mA*rGrUrUrCrUrArGrArUrGrCrUrGrUrCrCrGrGrUrUrUrUrArGrAmGmCmUmAmGmAmAmAmUmAmGmCrArArGrUrUrArArArArUrArArGrGrCrUrArGrUrCrCrGrUrUrArUrCrAmAmCmUmUmGmAmAmAmAmAmGmUmGmGmCmAmCmCmGmAmGmUmCmGmGmUmGmCmU*mU*mU*mU", "Avg % Insert": "11.98%"}

Could you now consider this next molecule?
QUERY: Fill in the blank: the reported Avg % Insert of G000500: TTR sgRNA modified sequence, Human, SEQ ID No. 107; guide sequence of CR003337 (nucleic acid) guide: mC*mC*mA*rGrUrCrCrArGrCrArArGrGrCrArGrArGrGrGrUrUrUrUrArGrAmGmCmUmAmGmAmAmAmUmAmGmCrArArGrUrUrArArArArUrArArGrGrCrUrArGrUrCrCrGrUrUrArUrCrAmAmCmUmUmGmAmAmAmAmAmGmUmGmGmCmAmCmCmGmAmGmUmCmGmGmUmGmCmU*mU*mU*mU is ____.
RESULT: 32.47%
